Biological target: T1, mouse folate receptor alpha (mFRα), recombinant protein (mouse, UniProt P35846 25-232)
T1 construct: Bought recombinant proteins (e.g. biotinylated, Acro Biosystems FO1-M82E9); also called mFOLR1; Ms FOLR1
T1 sequence (P35846 25-232 limits assumed): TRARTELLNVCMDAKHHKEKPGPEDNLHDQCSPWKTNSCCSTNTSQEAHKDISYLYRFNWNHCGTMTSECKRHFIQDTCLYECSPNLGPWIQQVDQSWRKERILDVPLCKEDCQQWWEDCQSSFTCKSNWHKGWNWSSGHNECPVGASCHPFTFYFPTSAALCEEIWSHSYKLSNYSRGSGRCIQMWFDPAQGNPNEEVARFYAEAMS
Test: BLI

{"BINDER": "P01500012: P0150001 with M32I (VHH, Entry carries a His6 tag) VHH: EVQLVESGGGLVQPGGSLRLSCAASGSGFSGIIMGWYRQAPGKQRELVATVTSHGTTNYADSVKGRFTISRDNAKNTVYLQMNSLRPEDTAVYYCNAHFPGIYWGKGTLVTVSS", "nm (Fold wt)": 4.7}
{"BINDER": "P01500087: P0150001 with A24L, S27A, M32P, N67E (VHH) VHH: EVQLVESGGGLVQPGGSLRLSCALSGAGFSGPIMGWYRQAPGKQRELVATVTSHGTTNYADSVKGRFTISRDNAKETVYLQMNSLRPEDTAVYYCNAHFPGIYWGKGTLVTVSS", "nm (Fold wt)": 2.3}
{"BINDER": "P01500086: P0150001 with A24L, S27A, M32P (VHH) VHH: EVQLVESGGGLVQPGGSLRLSCALSGAGFSGPIMGWYRQAPGKQRELVATVTSHGTTNYADSVKGRFTISRDNAKNTVYLQMNSLRPEDTAVYYCNAHFPGIYWGKGTLVTVSS", "nm (Fold wt)": 2.1}
{"BINDER": "P01500083: P0150001 with A24V, S27L, M32I, N76D (VHH) VHH: EVQLVESGGGLVQPGGSLRLSCAVSGLGFSGIIMGWYRQAPGKQRELVATVTSHGTTNYADSVKGRFTISRDNAKDTVYLQMNSLRPEDTAVYYCNAHFPGIYWGKGTLVTVSS", "nm (Fold wt)": 60}
{"BINDER": "P01500006: 2HF042(Q1E, Q5V, A14P, V40A, L79Y, K83R, Q108L)-FLAG3-HIS6 (VHH, Entry includes the tags; also called P0150006) VHH: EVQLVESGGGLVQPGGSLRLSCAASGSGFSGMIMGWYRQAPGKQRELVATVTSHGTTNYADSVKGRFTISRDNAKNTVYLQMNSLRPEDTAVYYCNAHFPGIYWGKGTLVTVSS", "nm (Fold wt)": 1}
{"BINDER": "P01500084: P0150001 with A24V, S27T, M32I, N76D (VHH) VHH: EVQLVESGGGLVQPGGSLRLSCAVSGTGFSGIIMGWYRQAPGKQRELVATVTSHGTTNYADSVKGRFTISRDNAKDTVYLQMNSLRPEDTAVYYCNAHFPGIYWGKGTLVTVSS", "nm (Fold wt)": 4}
